- TARGET OR TEST SYSTEM: recombinant E. coli BioA (Escherichia coli, UniProt P12995)
- Sequence (P12995 whole entry): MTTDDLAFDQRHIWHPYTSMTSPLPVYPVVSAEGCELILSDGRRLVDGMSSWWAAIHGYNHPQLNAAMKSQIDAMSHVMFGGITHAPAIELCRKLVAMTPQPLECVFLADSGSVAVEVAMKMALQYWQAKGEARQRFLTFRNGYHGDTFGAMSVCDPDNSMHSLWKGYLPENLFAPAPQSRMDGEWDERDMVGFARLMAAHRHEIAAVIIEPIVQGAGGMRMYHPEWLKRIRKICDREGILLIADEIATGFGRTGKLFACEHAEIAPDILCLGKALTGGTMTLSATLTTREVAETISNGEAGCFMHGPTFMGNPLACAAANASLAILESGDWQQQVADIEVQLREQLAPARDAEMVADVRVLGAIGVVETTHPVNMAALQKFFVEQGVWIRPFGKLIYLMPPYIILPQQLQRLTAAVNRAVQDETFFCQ
- TEST METHOD NOTES: BioA inhibition through a feeding assay of a bioA auxotroph

COMPOUND	TARGET OR TEST SYSTEM	IC50
NNC(=O)CSc1ccccc1[N+](=O)[O-] [MAC13772, 2-(2-nitrophenylthio) acetohydrazide]	recombinant E. coli BioA (Escherichia coli, UniProt P12995)	~250 nM

---

- TARGET OR TEST SYSTEM: recombinant E. coli BioA (Escherichia coli)
- TEST METHOD NOTES: BioA inhibition through a feeding assay of a bioA auxotroph
- Assay type: biochemical
- PARTICULARS: 1 μM; relative to DMSO control
MEASURED ATTRIBUTE: inhibition at 1 µM (%)

COMPOUND	UNIT NAME	MEASURED
CCCC(=O)NN	%	1
NNC(=O)CSc1ccccc1F [Compound 1d, 2-(2-fluorophenylthio)acetohydrazide]	%	36
CC(=O)NNC(=O)CSc1ccc([N+](=O)[O-])cc1	%	0
NNC(=O)CSc1ccc([N+](=O)[O-])cc1 [Compound 1b, 2-(4-nitrophenylthio)acetohydrazide]	%	66
CCC(=O)NN	%	0
CSCC(=O)NN	%	50
NNC(=O)CSc1ccncc1 [Compound 2i, 2-(pyridin-4-ylthio)acetohydrazide]	%	32
Cc1ccccc1SCC(=O)NN [Compound 1h, 2-(o-tolylthio)acetohydrazide]	%	81
COc1ccccc1SCC(=O)NN [Compound 1i, 2-(2-methoxyphenylthio)acetohydrazide]	%	65
O=C(O)CSc1ccccc1[N+](=O)[O-]	%	0
CC(=O)CSc1ccccc1[N+](=O)[O-]	%	0
NNC(=O)CSc1ccccc1N [Compound 1g, 2-(2-aminophenylthio)acetohydrazide]	%	58
CCC(=O)CSc1ccccc1[N+](=O)[O-]	%	0
NNC(=O)CSc1ccc2ccccc2c1 [Compound 2h, 2-(naphthalen-2-ylthio)acetohydrazide]	%	71

---

- TARGET OR TEST SYSTEM: recombinant PabA, PabB and PabC (Escherichia coli, UniProt P00903+P05041+P28305)
- Construct: poly-histidine (pDEST17) (N)
- Sequence (P00903 whole entry): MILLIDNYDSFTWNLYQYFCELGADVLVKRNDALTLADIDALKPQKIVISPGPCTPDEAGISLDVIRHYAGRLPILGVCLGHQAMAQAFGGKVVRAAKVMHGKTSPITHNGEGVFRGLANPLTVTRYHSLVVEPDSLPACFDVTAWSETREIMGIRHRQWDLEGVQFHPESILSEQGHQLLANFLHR
- Sequence (P05041 whole entry): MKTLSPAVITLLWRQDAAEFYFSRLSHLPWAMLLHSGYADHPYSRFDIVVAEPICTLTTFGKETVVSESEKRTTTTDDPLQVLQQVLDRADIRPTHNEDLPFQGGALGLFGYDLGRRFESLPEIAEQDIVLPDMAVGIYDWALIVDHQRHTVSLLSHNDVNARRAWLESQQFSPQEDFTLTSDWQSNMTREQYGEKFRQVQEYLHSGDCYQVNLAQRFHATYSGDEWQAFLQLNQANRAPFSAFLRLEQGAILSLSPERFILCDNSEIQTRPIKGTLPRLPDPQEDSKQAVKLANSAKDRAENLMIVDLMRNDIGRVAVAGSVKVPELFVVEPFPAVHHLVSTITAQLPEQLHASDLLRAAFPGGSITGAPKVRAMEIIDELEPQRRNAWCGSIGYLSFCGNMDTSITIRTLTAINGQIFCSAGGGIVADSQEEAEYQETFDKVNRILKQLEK
- Sequence (P28305 whole entry): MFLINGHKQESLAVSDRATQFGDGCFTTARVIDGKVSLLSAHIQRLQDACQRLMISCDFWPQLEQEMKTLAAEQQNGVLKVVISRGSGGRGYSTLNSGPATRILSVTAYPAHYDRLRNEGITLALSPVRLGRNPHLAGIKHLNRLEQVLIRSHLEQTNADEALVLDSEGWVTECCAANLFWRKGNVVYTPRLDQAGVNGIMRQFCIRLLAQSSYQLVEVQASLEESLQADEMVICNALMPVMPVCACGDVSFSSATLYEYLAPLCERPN
- TEST METHOD NOTES: biochemical
pIC50: −log10 of the molar value.
// reported pIC50 for each item listed

INPUT SMILES	pIC50
O=C(CC(Cl)Cl)c1cccc([N+](=O)[O-])c1	4.22
O=C(C=C(Cl)Cl)c1cccc([N+](=O)[O-])c1	4.52

---

- TARGET OR TEST SYSTEM: recombinant PabA, PabB and PabC (Escherichia coli, UniProt P00903+P05041+P28305)
- Construct: poly-histidine (pDEST17) (N)
- TEST METHOD NOTES: biochemical
pKi: −log10 of the molar value.

COMPOUND	TARGET OR TEST SYSTEM	pKi
O=C(C=C(Cl)Cl)c1cccc([N+](=O)[O-])c1 [MAC-0173979]	recombinant PabA, PabB and PabC (Escherichia coli, UniProt P00903+P05041+P28305)	5.14

---

- Test system: E. coli MG1655
- TEST METHOD NOTES: Metabolic suppression profiling (ChemArray)
- Assay type: cell-based
- PARTICULARS: 4× MIC in M9 minimal media, glycine
MEASURED ATTRIBUTE: suppression of growth inhibitory activity by glycine

COMPOUND	TARGET OR TEST SYSTEM	MEASURED
COc1ccc(C(=O)CCN(C)C)cc1	E. coli MG1655	strongly suppressed
O=C(CCN1CCCCC1)c1ccc2c(c1)OCCCO2	E. coli MG1655	strongly suppressed
CN(C)CCC(=O)c1ccc2c(c1)OCCO2	E. coli MG1655	strongly suppressed
N[C@@H]1CONC1=O [D-cycloserine, reference compound]	E. coli MG1655	strongly suppressed

Where do the numbers come from? From patent US20150237857A1.
